target: recombinant human acetylcholinesterase, rHsAChE (Homo sapiens, UniProt P22303)
Sequence (P22303 32-614): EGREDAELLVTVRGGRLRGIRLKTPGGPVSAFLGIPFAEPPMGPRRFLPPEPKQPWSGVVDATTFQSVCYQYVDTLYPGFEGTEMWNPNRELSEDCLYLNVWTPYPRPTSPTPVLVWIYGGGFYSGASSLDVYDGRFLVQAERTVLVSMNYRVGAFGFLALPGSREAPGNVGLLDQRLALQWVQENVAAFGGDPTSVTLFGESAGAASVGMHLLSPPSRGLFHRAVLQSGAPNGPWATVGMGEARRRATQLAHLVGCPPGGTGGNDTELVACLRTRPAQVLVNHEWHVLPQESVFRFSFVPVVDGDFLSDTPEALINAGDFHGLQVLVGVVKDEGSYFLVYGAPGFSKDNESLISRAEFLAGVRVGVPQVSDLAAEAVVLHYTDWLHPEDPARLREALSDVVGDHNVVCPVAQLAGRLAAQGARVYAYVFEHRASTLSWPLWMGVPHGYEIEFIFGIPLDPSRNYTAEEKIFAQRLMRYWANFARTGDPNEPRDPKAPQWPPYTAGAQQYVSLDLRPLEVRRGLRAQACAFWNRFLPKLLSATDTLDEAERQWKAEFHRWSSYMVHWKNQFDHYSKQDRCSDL
runDescription: biochemical
Output satisfied for SI (Sm/Hs) not less than 3; output not satisfied otherwise.

query: Is SI (Sm/Hs) at least 3? Consider O=C(O)CNC(=O)c1c(O)c2ccccc2n(Cc2ccccc2)c1=O [IOX2, reference compound]
result: not satisfied

query: Is SI (Sm/Hs) at least 3? Consider CC(C)(Sc1cc(C(C)(C)C)c(O)c(C(C)(C)C)c1)Sc1cc(C(C)(C)C)c(O)c(C(C)(C)C)c1 [Probucol, reference compound]
result: satisfied

query: Is SI (Sm/Hs) at least 3? Consider CCCCCCCC/C=C\CCCCCCCC(=O)NCCc1ccc(O)c(O)c1 [OLDA, reference compound]
result: not satisfied

query: Is SI (Sm/Hs) at least 3? Consider O=C(O)Cn1nnc(-c2cc(N3CCC(Oc4cc(F)ccc4Br)CC3)no2)n1 [MK-8245, reference compound]
result: satisfied

query: Is SI (Sm/Hs) at least 3? Consider COc1ccc(/C=C/CCCCOc2ccc(C(=O)c3cccc(C(=O)O)c3)cc2CCC(=O)O)cc1 [LY223982, reference compound]
result: not satisfied

query: Is SI (Sm/Hs) at least 3? Consider Brc1cc2c(cc1[C@@H]1Nc3ccccc3[C@@H]3C=CC[C@@H]31)OCO2 [G15, reference compound]
result: not satisfied

---

target: recombinant human acetylcholinesterase, rHsAChE (Homo sapiens)
runDescription: biochemical
experimentalSetup: read-out: IC50 for rHsAChE
measure: IC50

query: Kindly state the measured IC50 obtained for CCN(c1ccccc1)c1cc(=NC)n(C)c(C)n1 [ZD-7288, reference compound] with recombinant human acetylcholinesterase, rHsAChE (Homo sapiens).
result: ~20 µM

---

target: rSmTAChE (Schistosoma mansoni, UniProt A0A3Q0KMM5);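 note: mostly 20 µM final but a few compounds at 5 or 10 µM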
Sequence (A0A3Q0KMM5 27-661 limits assumed): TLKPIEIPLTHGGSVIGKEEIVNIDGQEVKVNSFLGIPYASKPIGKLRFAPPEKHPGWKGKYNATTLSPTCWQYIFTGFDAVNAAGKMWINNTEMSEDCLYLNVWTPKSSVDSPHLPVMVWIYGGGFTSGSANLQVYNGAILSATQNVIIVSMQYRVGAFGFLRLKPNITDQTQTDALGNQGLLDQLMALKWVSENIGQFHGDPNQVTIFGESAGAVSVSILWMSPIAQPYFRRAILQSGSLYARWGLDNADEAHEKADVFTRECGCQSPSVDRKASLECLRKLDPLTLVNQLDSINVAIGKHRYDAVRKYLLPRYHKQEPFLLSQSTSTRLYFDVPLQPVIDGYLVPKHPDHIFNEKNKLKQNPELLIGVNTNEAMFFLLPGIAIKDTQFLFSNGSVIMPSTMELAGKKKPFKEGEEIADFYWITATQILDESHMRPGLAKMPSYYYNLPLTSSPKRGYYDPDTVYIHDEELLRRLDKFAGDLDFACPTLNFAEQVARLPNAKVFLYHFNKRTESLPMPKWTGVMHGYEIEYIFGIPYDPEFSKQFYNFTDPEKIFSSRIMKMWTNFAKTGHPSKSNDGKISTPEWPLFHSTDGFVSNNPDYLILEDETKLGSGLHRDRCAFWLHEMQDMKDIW
runDescription: biochemical
Assign labels as follows, please: rule met for Inhibition (%) Replicate A below 80%; rule not met for Inhibition (%) Replicate A equal to or exceeding 80%.

query: Say whether its Inhibition (%) Replicate A is strictly beneath 80%. Entry: CC(C)(C)[S@@+]([O-])N1Cc2cc(C(=O)N3CCCCC3)nc(-c3cccc(-c4ccccc4F)c3)c2[C@H]1CCO [BRD-K19167425-001-01-6]
result: rule met

query: Say whether its Inhibition (%) Replicate A is strictly beneath 80%. Entry: CSc1cc2c(cc1C(F)(F)F)N(C(=O)Nc1cccnc1)CC2 [BRD-K14807180-001-02-5]
result: rule not met

query: Say whether its Inhibition (%) Replicate A is strictly beneath 80%. Entry: COc1ccccc1-c1cccc(-c2nc(C(=O)NCc3ccncc3)cc3c2[C@@H](CCO)N([S@+]([O-])C(C)(C)C)C3)c1 [BRD-K32310489-001-03-4]
result: rule met

query: Say whether its Inhibition (%) Replicate A is strictly beneath 80%. Entry: COC(=O)C1=C(C)NC(C)=C(C(=O)OC(C)(C)CN(C)CCC(c2ccccc2)c2ccccc2)C1c1cccc([N+](=O)[O-])c1 (stereo not shown) [BRD-A18992208-003-02-7]
result: rule met

query: Say whether its Inhibition (%) Replicate A is strictly beneath 80%. Entry: O=C(C[C@H]1C[C@H]2c3cc(NC(=O)Nc4ccc(C(F)(F)F)cc4)ccc3O[C@H]2[C@@H](CO)O1)NC1CCCCC1 [BRD-K18925241-001-01-0]
result: rule met

query: Say whether its Inhibition (%) Replicate A is strictly beneath 80%. Entry: Nc1nc(NCC2CCC(CNS(=O)(=O)c3cccc4ccccc34)CC2)nc2ccccc12 (stereo not shown) [CGP-71683, reference compound]
result: rule met

---

target: rSmTAChE (Schistosoma mansoni);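 note: mostly 20 µM final but a few compounds at 5 or 10 µM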
runDescription: biochemical
Kindly state Inhibition (%) Replicate B for each of the entries shown.

A selection of reference data follows.
CCCCCCCC/C=C\CCCCCCCC(=O)NCCc1ccc(O)c(O)c1 [OLDA, reference compound]; 95.51%
CC(C)(C)[S@@+]([O-])N1Cc2cc(C(=O)N3CCCCC3)nc(-c3cccc(-c4ccccc4F)c3)c2[C@H]1CCO [BRD-K19167425-001-01-6]; 62.02%
NC(=O)N/N=C/c1ccc(Oc2ccc(F)cc2)cc1 [BRD-K70912147-001-01-8]; 71.46%

Could I get Inhibition (%) Replicate B for every one of these entries?
1. CCCCCCCCCCCC([NH2+][O-])c1cc(C)ccc1O (stereo not drawn) [BRD-A37752546-001-01-9]
2. COc1ccc(/C=C/CCCCOc2ccc(C(=O)c3cccc(C(=O)O)c3)cc2CCC(=O)O)cc1 [LY223982, reference compound]

result:
["86.01%", "77.36%"]

Could I get Inhibition (%) Replicate B for every one of these entries?
1. O=C(Cc1cccc(OC(F)(F)F)c1)Nc1ccc(CCCCc2nnc(NC(=O)Cc3ccccn3)s2)nn1 [BRD-K58070273-001-03-3]
2. C[C@H](Oc1cc(-c2cnn(C3CCNCC3)c2)cnc1N)c1c(Cl)ccc(F)c1Cl [BRD-K40308497-001-01-2]
3. COC(=O)C1=C(C)NC(C)=C(C(=O)OC(C)(C)CN(C)CCC(c2ccccc2)c2ccccc2)C1c1cccc([N+](=O)[O-])c1 (stereo not drawn) [BRD-A18992208-003-02-7]

result:
1: 68.80%; 2: 87.03%; 3: 78.79%

query: Which Inhibition (%) Replicate B is listed for C[C@H](NC(=O)C[C@H]1C[C@H]2c3cc(NC(=O)Nc4ccc(C(F)(F)F)cc4)ccc3O[C@H]2[C@H](CO)O1)c1ccccc1 [BRD-K17686770-001-01-8] ?
result: 66.63%

---

Kindly state IC50 for each of the entries shown.
target: recombinant human acetylcholinesterase, rHsAChE (Homo sapiens, UniProt P22303)
runDescription: biochemical
experimentalSetup: read-out: qAC50 (IC50), rHsAChE
Give bare numbers, in µM.

Could I get IC50 for every one of these entries?
1. CCCN1C[C@H](CSC)C[C@@H]2c3cccc4[nH]cc(c34)C[C@H]21
2. CC#C[C@@H](CC(=O)O)c1ccc(OCc2cccc(-c3ccc(C(F)(F)F)cc3)c2)cc1
3. CCCC[C@@H](CC)COC(=O)/C=C/c1ccc(OC)cc1

result:
29.7
15.4
25.7

---

target: recombinant human acetylcholinesterase, rHsAChE (Homo sapiens)
runDescription: biochemical
experimentalSetup: Table 3; read-out: IC50 (µM) rHsAChE
Kindly state IC50 for each of the entries shown.

A selection of reference data follows.
O=C(O)Cn1nnc(-c2cc(N3CCC(Oc4cc(F)ccc4Br)CC3)no2)n1 [MK-8245, reference compound]; 7.93 µM
CCCCC(CC)CCC(CC(C)C)OS(=O)(=O)O (stereo not shown) [Sodium-tetradecyl-sulfate, reference compound]; 5.66 µM
CC1(COc2ccc3c(c2)ncn3-c2ccc3cccc(N4CCC(N)CC4)c3n2)COC1 [Crenolanib, reference compound]; 9.91 µM

Turning to the following molecule.
query: Kindly state the measured IC50 obtained for COc1ccc(-c2ccc3ncc4c(c3c2)n(-c2ccc(N3CCNCC3)c(C(F)(F)F)c2)c(=O)n4C)cn1 [NVP-BGT226, reference compound] with recombinant human acetylcholinesterase, rHsAChE (Homo sapiens).
result: > 13.5 µM

---

target: rSmTAChE (Schistosoma mansoni, UniProt A0A3Q0KMM5);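 note: mostly 20 µM final but a few compounds at 5 or 10 µM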
runDescription: biochemical
Kindly state Inhibition (%) Replicate A for each of the entries shown.
Units required after the number.

O=c1sn(-c2cccc3ccccc23)c(=O)n1Cc1ccccc1 [BRD-K81330143-001-04-8]; 89.17%
O=C(C[C@H]1C[C@H]2c3cc(NC(=O)NC4CCCC4)ccc3O[C@H]2[C@@H](CO)O1)NCc1ccccc1F [BRD-K64460391-001-01-9]; 89.69%
C[C@]12CCC3c4ccc(OC(=O)c5ccccc5)cc4CCC3C1CC[C@@H]2O (stereo partly shown) [BRD-A74765037-001-01-1]; 67.53%
C=CCNc1nc(NCC=C)nc(N2CCN(C(c3ccc(F)cc3)c3ccc(F)cc3)CC2)n1 [BRD-K82677201-001-01-6]; 72.90%
O=C(C[C@@H]1C[C@@H]2c3cc(NC(=O)NC4CCCC4)ccc3O[C@@H]2[C@@H](CO)O1)NCc1ccccc1F [BRD-K71334452-001-01-3]; 90.25%

Could I get Inhibition (%) Replicate A for every one of these entries?
1. COc1ccc(NC(=O)Nc2ccc3c(c2)[C@H]2C[C@@H](CC(=O)NCC(F)(F)F)O[C@@H](CO)[C@H]2O3)cc1 [BRD-K54729370-001-01-4]
2. CC(=O)[C@@]12OC(C)(c3ccccc3)O[C@@H]1C[C@H]1[C@@H]3CCC4=CC(=O)CC[C@]4(C)[C@H]3CC[C@@]12C (stereo partly shown) [BRD-A41774846-001-01-4]

result:
1: 91.00%; 2: 86.06%

The origin of these recorded values is paper PMC12154458.
